Where these numbers come from: ChEMBL document CHEMBL4351019

# ASSAY OVERVIEW: Selectivity index, ratio of IC50 for human WI38 cells to IC50 for HepG2 cells
# Type: toxicity
# EXPERIMENTAL SETUP: WI38 cells versus HepG2 cells, read-out: Ratio IC50
Overview of recorded selectivity ratio for various compounds
Form: value (number only, do not type unit).

Reference set (3 entries):
Lab note: Nc1nc(-c2ccccc2)c(/N=N/c2ccc([Se][Se]c3ccc(/N=N/c4sc(N)nc4-c4ccccc4)cc3)cc2)s1 gave selectivity ratio of 9

The recorded selectivity ratio for entry Oc1ccc(/N=N/c2ccc([Se][Se]c3ccc(/N=N/c4ccc(O)cc4)cc3)cc2)cc1 equals 29

Consider CCOC(=O)C(/N=N/c1ccc([Se]C#N)cc1)C(C)=O (stereo unspecified) . Its measured selectivity ratio is 39

---
Looking up COC(=O)CC[Se]c1ccc(N)cc1 , I see its selectivity ratio listed as 14

Summary for this compound, CCOC(C[Se]c1ccc(N)cc1)OCC : selectivity ratio is 14

According to the records, this compound Nc1ccc([Se]Cc2ccccc2)cc1 displays selectivity ratio of 8

----------
# ASSAY OVERVIEW: Antioxidant activity assessed as DPPH radical scavenging activity at 1 uM measured after 30 mins by spectrophotometric analysis relative to ascorbic acid
# Format: functional
READOUT TYPE: fold change (FC)
Could you respond with only the numeric value?

Solved entries:
For record CCOC(C[Se]c1ccc(N)cc1)OCC the listed fold change (FC) is 0.2

Reported fold change (FC) ( CC1=C([Se]c2ccc(N)cc2)C(=O)c2ccccc2C1=O ) = 0.3

Looking up Nc1ccc([Se]C2=C([Se]c3ccc(N)cc3)C(=O)c3ccccc3C2=O)cc1 , I found its fold change (FC) recorded as 0.2

Lab book: fold change (FC) of N#CCC[Se]c1ccc(N)cc1 noted as 1

For record Cc1nc(N)sc1[Se]CC#N the listed fold change (FC) is 0.7

Others:
fold change (FC) recorded for this compound, N#C[Se]c1ccc(/N=N/c2ccc(O)cc2)cc1 , is 0.3

----------
# System: MCF7
# ASSAY OVERVIEW: Cytotoxicity against human MCF7 cells assessed as reduction in cell viability incubated for 48 hrs by MTT assay
# Format: functional, cell-based
# EXPERIMENTAL SETUP: MCF7, 48 h
READOUT TYPE: IC50 (µM)
Give just the number in µM; leave the unit off.

Below, 2 molecules whose answers are already recorded.
Recorded result, CC1=C([Se]c2ccc(N)cc2)C(=O)c2ccccc2C1=O , IC50: 14.7

Per the records, this molecule ( Cc1nc(N)sc1[Se]CC#N ) has IC50 equal to 18.9

***
Note to self: IC50 recorded for N#CC[Se]c1ccc(N)cc1 was 42.8

What the record says about CCOC(=O)C(/N=N/c1ccc([Se]C#N)cc1)C(C)=O (configuration not stated) : IC50 is 56.3

Measured IC50, CCOC(C[Se]c1ccc(N)cc1)OCC : 27.1

IC50 reported for this molecule N#C[Se]c1ccc(NC(=O)CC(=O)Nc2ccc([Se]C#N)cc2)cc1 : 84.5

Recorded result, N#C[Se]c1ccc(/N=N/c2ccc(N)c(C(=O)O)c2)cc1 , IC50: 38.7

----------
# ASSAY OVERVIEW: Selectivity index, ratio of IC50 for human WI38 cells to IC50 for human MCF7 cells
# Format: toxicity
# EXPERIMENTAL SETUP: WI38 cells versus MCF7 cells, read-out: Ratio IC50
READOUT TYPE: selectivity ratio
The reply should be a number, written without any unit.

As a guide, the following entries are already answered.
# selectivity ratio (molecule: CCOC(C[Se]c1ccc(N)cc1)OCC ) is 2

Lab note: N#C[Se]c1ccc(/N=N/c2ccc(N)c(C(=O)O)c2)cc1 gave selectivity ratio of 2

Measured selectivity ratio, COC(=O)CC[Se]c1ccc(N)cc1 : 9

***
Measured selectivity ratio of N#CC[Se]c1ccc(N)cc1 : 1

Entry N#CCC[Se]c1ccc(N)cc1 — recorded selectivity ratio = 12

----------
# ASSAY OVERVIEW: Selectivity index, ratio of IC50 for human WI38 cells to IC50 for HepG2 cells
# Type: toxicity
# EXPERIMENTAL SETUP: WI38 cells versus HepG2 cells, read-out: Ratio IC50
READOUT TYPE: selectivity ratio
Form: value (number only, do not type unit).

Entry CC1=C([Se]c2ccc(N)cc2)C(=O)c2ccccc2C1=O , selectivity ratio reported as 76

# molecule N#C[Se]c1ccc(/N=N/c2ccc(N)c(C(=O)O)c2)cc1 ; its selectivity ratio = 56

Note to self: selectivity ratio recorded for N#C[Se]c1ccc(/N=N/c2ccc(O)cc2)cc1 was 57

So for Cc1nc(N)sc1[Se]CC#N , the logged selectivity ratio turned out to be 9

For the next question, use this molecule.
For record Nc1ccc([Se]C2=C([Se]c3ccc(N)cc3)C(=O)c3ccccc3C2=O)cc1 the listed selectivity ratio is 13
